Data provenance: PubChem BioAssay (NCI)

# Test system: NCI-H522 lung
# assay_summary: NCI tumour cell line growth inhibition, 48 h
assay_endpoint: TGI (µM)
Field: numeric (µM). Do not append units.

Request: Form entry - test system: NCI-H522 lung; read-out: TGI; compound: O=C(Nc1nc(C23CC4CC(CC(C4)C2)C3)cs1)c1cc2ccc(O)cc2oc1=O
Response: 45.6

Request: Request body: readout TGI, system NCI-H522 lung, query COc1cc(-c2cc(-c3cc4c([nH]c5ccccc54)c(-c4cc(OC)c(OC)c(OC)c4)n3)cc(-c3ccccc3)n2)cc(OC)c1OC . Return the value.
Response: 8.01

Request: GET /values?readout=TGI&system=NCI-H522 lung&item= Cn1c(=O)c(-c2ccccc2)c(N=[N+]=[N-])c2ccccc21
Response: 75.5

Request: Item: O=c1c(/C=C/c2c(O)ccc3ccccc23)nnc2sc(-c3cccc(Br)c3)nn12 Test system: NCI-H522 lung Read-out: TGI Value: ?
Response: 42.3

Request: Please tell me: TGI of CNCC#Cc1c(F)ccc2c1/C(=C/c1[nH]ccc1OC)C(=O)N2 , system NCI-H522 lung?
Response: 1.17

Request: Notebook: pull reported TGI for NCI-H522 lung, entry CC(=O)c1[nH]c(NCc2ccccc2)c(C(=S)Nc2ccccc2)c1N
Response: 0.166

Request: // lookup TGI | system=NCI-H522 lung | key= COc1ccc(S(=O)(=O)c2nnc(S(=O)(=O)Cc3ccccc3)s2)cc1
Response: 27.1

Request: Give TGI (NCI-H522 lung) of the following compound: CCN1CCC(O)(c2ccc(OC)cc2)C(C(=O)c2ccc(OC)cc2)C1 (configuration not stated)
Response: 4.06

Request: API: value(readout=TGI, system=NCI-H522 lung) for record O=C(Oc1ccccn1)c1cc2cc(CCl)ccc2oc1=O
Response: 30.3

Request: Lab note: need TGI with NCI-H522 lung for entry Cc1nn(-c2ccccc2)c2c1C(c1ccc(Cl)cc1)NC(=S)N2 (configuration not stated) , please look it up.
Response: 37.2
